Measured growth by item
- Tested on: E. coli TESEC Alr+ wild-type control
- protocolNotes: growth (OD600 after 10 h); higher = more growth (less inhibition)
- conditionParameters: compound 0.1 mM; raw OD600 reference: median of DMSO wells 0.49, cell-free background 0.052
Structures can show the parent of a compound that is named as a salt.
reportedProperty: growth

compound="Nc1c2c(nc3ccccc13)CCCC2O (racemic) [Hydroxytacrine maleate (R,S)]" reported=0.612
compound="CC(CN(C)C)CN1c2ccccc2CCc2ccccc21 (centres undefined) [Trimipramine maleate salt]" reported=0.428
compound=NCCCCCC(=O)O reported=0.463
compound="CN(C)C(=O)C(CCN1CCC(O)(c2ccc(Cl)cc2)CC1)(c1ccccc1)c1ccccc1 [Loperamide hydrochloride]" reported=0.0784
compound="NCc1ccccc1CC(=O)N[C@@H]1C(=O)N2C(C(=O)O)=C(CSc3nnnn3CC(=O)O)CS[C@H]12 [Ceforanide]" reported=0.501
compound=CC1=C(/C=C/C(C)=C/C=C/C(C)=C\C(=O)O)C(C)(C)CCC1 reported=0.425
compound="COc1ccc(CC(C)NCC(O)c2ccc(O)c(NC=O)c2)cc1 (centres undefined) [Formoterol fumarate]" reported=0.501
compound=CS(=O)(=O)c1ccc([C@@H](O)[C@@H](CO)NC(=O)C(Cl)Cl)cc1 reported=0.206
compound=Nc1cc(-c2ccncc2)c[nH]c1=O reported=0.446

* * *

- Tested on: E. coli TESEC Mtb Alr
- protocolNotes: growth (OD600 after 10 h); higher = more growth (less inhibition)
- conditionParameters: arabinose 10000000 nM; compound 0.1 mM; raw OD600 reference: median of DMSO wells 0.146, cell-free background 0.041
Counter-ions that a name gives are not always drawn.
reportedProperty: growth

molecule=CCCc1nn(C)c2c(=O)[nH]c(-c3cc(S(=O)(=O)N4CCN(C)CC4)ccc3OCC)nc12 reported=0.169
molecule="Cn1c(=O)c2c(ncn2CC(O)CO)n(C)c1=O (stereo not given)" reported=0.138
molecule=N=C(NCCCCCCNC(=N)NC(=N)Nc1ccc(Cl)cc1)NC(=N)Nc1ccc(Cl)cc1 reported=0.0449
molecule="CCN[C@H]1CN(CCCOC)S(=O)(=O)c2sc(S(N)(=O)=O)cc21 [Brinzolamide]" reported=0.135
molecule="c1cnc(N2CCN(Cc3ccc4c(c3)OCO4)CC2)nc1 [Piribedil hydrochloride]" reported=0.14

* * *

Overview of recorded growth for various compounds
- Test system: E. coli TESEC Alr+ wild-type control
- protocolNotes: growth (OD600 after 10 h); higher = more growth (less inhibition)
- conditionParameters: compound 0.1 mM; raw OD600 reference: median of DMSO wells 0.241, cell-free background 0.041
Where a name gives a salt, the structure may show the parent alone.
reportedProperty: growth

compound=O=C(O)c1cn(-c2ccc(F)cc2)c2cc(N3CCNCC3)c(F)cc2c1=O measuredon="E. coli TESEC Alr+ wild-type control" reported=0.0422
compound=NC(=O)N/N=C/c1ccc([N+](=O)[O-])o1 measuredon="E. coli TESEC Alr+ wild-type control" reported=0.044
compound="CCCN[C@H]1CCc2nc(N)sc2C1 [Pramipexole dihydrochloride]" measuredon="E. coli TESEC Alr+ wild-type control" reported=0.237
compound="CC(C)(C)c1ccc(C(O)CCCN2CCC(C(O)(c3ccccc3)c3ccccc3)CC2)cc1 (stereo not drawn)" measuredon="E. coli TESEC Alr+ wild-type control" reported=0.205
compound=CN(C/C=C/C#CC(C)(C)C)Cc1cccc2ccccc12 measuredon="E. coli TESEC Alr+ wild-type control" reported=0.214
compound="CN(C)CCOC(=O)C(c1ccccc1)C1(O)CCCC1 (stereo not drawn) [Cyclopentolate hydrochloride]" measuredon="E. coli TESEC Alr+ wild-type control" reported=0.219
compound="CC(C)OC(=O)C(C)(C)Oc1ccc(C(=O)c2ccc(Cl)cc2)cc1 [Fenofibrate]" measuredon="E. coli TESEC Alr+ wild-type control" reported=0.219
compound="CC(C)NCC(O)c1ccc2ccccc2c1 (stereo not drawn) [Pronethalol hydrochloride]" measuredon="E. coli TESEC Alr+ wild-type control" reported=0.245
compound="CCOc1ccccc1OCC1CNCCO1 (stereo not drawn) [Viloxazine hydrochloride]" measuredon="E. coli TESEC Alr+ wild-type control" reported=0.236
compound=CCN(CC)C(=O)/C(C#N)=C/c1cc(O)c(O)c([N+](=O)[O-])c1 measuredon="E. coli TESEC Alr+ wild-type control" reported=0.0523
compound="CC(C(=O)O)c1ccc(C(=O)c2ccccc2)s1 (stereo not drawn)" measuredon="E. coli TESEC Alr+ wild-type control" reported=0.22
compound="CCCNC(=O)NS(=O)(=O)c1ccc(Cl)cc1 [Chlorpropamide]" measuredon="E. coli TESEC Alr+ wild-type control" reported=0.255
compound=CC(=O)N[C@@H](CC(C)C)C(=O)O measuredon="E. coli TESEC Alr+ wild-type control" reported=0.243
compound="CCC(=O)O[C@]1(C(=O)SCF)[C@H](C)C[C@H]2[C@@H]3C[C@H](F)C4=CC(=O)C=C[C@]4(C)[C@@]3(F)[C@@H](O)C[C@@]21C [Fluticasone propionate]" measuredon="E. coli TESEC Alr+ wild-type control" reported=0.233
compound="O=C(C1CCCCC1)N1CC(=O)N2CCc3ccccc3C2C1 (stereo not drawn)" measuredon="E. coli TESEC Alr+ wild-type control" reported=0.207
compound="COc1ccccc1OCCNCC(O)COc1cccc2[nH]c3ccccc3c12 (stereo not drawn)" measuredon="E. coli TESEC Alr+ wild-type control" reported=0.0443
compound="O=C1OC(CN2CCOCC2)CN1/N=C/c1ccc([N+](=O)[O-])o1 (stereo not drawn) [Furaltadone hydrochloride]" measuredon="E. coli TESEC Alr+ wild-type control" reported=0.0416
compound=C[C@H]1C[C@H]2[C@@H]3CCC4=CC(=O)C=C[C@]4(C)[C@@]3(F)[C@@H](O)C[C@]2(C)[C@@]1(O)C(=O)CO measuredon="E. coli TESEC Alr+ wild-type control" reported=0.184
